Data provenance is the NIST ThermoML archive (doi:10.1016/j.tca.2004.08.001).

Settings: 303.15 K; 101.33 kPa; Liquid; Linear variable-path acoustic interferometer
Given measured speed of sound, output 1 if it is greater than or equal to 1000 m/s and -1 if not.

Please review the following examples before continuing.
[
  {
    "compound": "C1CCOC1 [tetrahydrofuran]",
    "class": 1
  },
  {
    "compound": "CCCCCCCl",
    "class": 1
  },
  {
    "compound": "CCOC(C)=O [ethyl acetate]",
    "class": 1
  },
  {
    "compound": "ClC(Cl)Cl",
    "class": -1
  }
]

API: above_or_equal(metric=speed of sound, cutoff=1000 m/s) for item CCCCCOC(C)=O [pentyl ethanoate]
1

Can COC(C)=O [methyl ethanoate] be said to have speed of sound at or above 1000 m/s?
1

hey, is speed of sound for this one >= 1000 m/s? CCCCOC(C)=O [butyl ethanoate]
1

Quick check, speed of sound >= 1000 m/s? `ClC(Cl)(Cl)Cl`
-1

Hi team, for `CCCCCCBr` , is the recorded speed of sound at or above 1000 m/s?
1

Would you say `ClC(Cl)C(Cl)Cl` shows speed of sound at minimum 1000 m/s?
1
